# System: BT-549
# assayOverview: Cytotoxicity against human BT549 cells at 100 ug/ml […] by MTT assay
# Assay type: cell-based
measurementKind: Activity (%)
Number in %, nothing else.

compound="Cc1cc(=O)[nH]c2cc(N3C(=O)CSC3c3ccccc3Cl)ccc12 (stereo unspecified)" measurementkind=Activity measureunit=% endpointvalue=61.394
compound="Cc1cc(=O)[nH]c2cc(N3C(=O)CSC3c3ccc(Br)o3)ccc12 (stereo unspecified)" measurementkind=Activity measureunit=% endpointvalue=42.357

Task: Query (compound): Cc1cc(=O)[nH]c2cc(N3C(=O)CSC3c3ccc(F)cc3)ccc12 (stereo unspecified) ; field requested: Activity
Result: 43.311

Task: For Cc1cc(=O)[nH]c2cc(N3C(=O)CSC3c3ccncc3)ccc12 (stereo unspecified) , what is its reported Activity?
Result: 22.176

Task: # input compound: Cc1cc(=O)[nH]c2cc(N3C(=O)CSC3c3ccc(N(C)C)cc3)ccc12 (stereo unspecified) ; wanted: its Activity
Result: 29.327

Task: Quick one: Activity for Cc1cc(=O)[nH]c2cc(N3C(=O)CSC3c3ccccc3)ccc12 (stereo unspecified) ?
Result: 71.578

Task: Tell me the measured Activity of Cc1cc(=O)[nH]c2cc(N3C(=O)CSC3N3CCCCC3)ccc12 (stereo unspecified) , please.
Result: 31.949

Task: Quick one: Activity of Cc1ccc(C2SCC(=O)N2c2ccc3c(C)cc(=O)[nH]c3c2)o1 (stereo unspecified) ?
Result: 31.114

Task: # Activity lookup, item Cc1cc(=O)[nH]c2cc(N3C(=O)CSC3c3ccc(Cl)cc3)ccc12 (stereo unspecified)
Result: 46.201

Task: Could you share which Activity value was measured for Cc1cc(=O)[nH]c2cc(N3C(=O)CSC3c3cccc(Cl)c3)ccc12 (stereo unspecified) ?
Result: 44.849

Task: Request the reported Activity associated with COc1ccc(C2SCC(=O)N2c2ccc3c(C)cc(=O)[nH]c3c2)cc1 (stereo unspecified)
Result: 39.334
